molecular target: PDE4D7 (Homo sapiens (Human)); settings: read-out: PDE4D7 IC50; PDE4D7 without asterisk
pIC50: −log10 of the molar value. Where a name gives a salt, the structure may show the parent alone.
REPORTED_ENDPOINT: pIC50

MOLECULE: CCc1cc(Nc2ccc(CC(N)=O)cc2)nc(-c2cccc(Cl)c2)n1
REPORTED_ENDPOINT: pIC50
MEASUREMENT: > 6.00
//
MOLECULE: CCc1cc(Nc2ccc(Cn3cccn3)cc2)nc(-c2cccc(Cl)c2)n1
REPORTED_ENDPOINT: pIC50
MEASUREMENT: > 6.00
//
MOLECULE: OCCc1ccc(Nc2nc(-c3cccc(Cl)c3)nc3c2SCCC3)cc1
REPORTED_ENDPOINT: pIC50
MEASUREMENT: > 6.00
//
MOLECULE: NC(=O)Cc1ccc(Nc2nc(C3CCCC3)nc3c2CCC3)cc1
REPORTED_ENDPOINT: pIC50
MEASUREMENT: > 6.00
//
MOLECULE: CCCc1nc(Nc2ccc(C(=O)O)cc2)nc(-c2ccc(Cl)s2)n1
REPORTED_ENDPOINT: pIC50
MEASUREMENT: < 6.00
//
MOLECULE: N#CNC(=O)Cc1ccc(Nc2nc(-c3cccc(Cl)c3)nc3c2SCCC3)cc1
REPORTED_ENDPOINT: pIC50
MEASUREMENT: > 6.00
//
MOLECULE: NC(=O)Cc1ccc(Cc2cc(C(F)(F)F)nc(OC3CCCC3)n2)cc1
REPORTED_ENDPOINT: pIC50
MEASUREMENT: < 6.00
//
MOLECULE: NC(=O)Cc1ccc(Cc2cc(OC3CCCC3)nc3c2CCC3)cc1 [Example 131, hydrochloride]
REPORTED_ENDPOINT: pIC50
MEASUREMENT: < 6.00

Let us move to another entry and its pIC50.
INPUT: # return recorded pIC50 for entry "O=C(O)CCCc1ccc(Nc2cc(-c3cccc(Cl)c3)nc3c2CCC3)cc1"
OUTPUT: < 6.00

----------
molecular target: PDE4D7 (Homo sapiens (Human), UniProt Q08499); settings: read-out: PDE4D7 IC50; PDE4D7 without asterisk
Sequence (Q08499 other isoform, or with tags, fused parts or gaps): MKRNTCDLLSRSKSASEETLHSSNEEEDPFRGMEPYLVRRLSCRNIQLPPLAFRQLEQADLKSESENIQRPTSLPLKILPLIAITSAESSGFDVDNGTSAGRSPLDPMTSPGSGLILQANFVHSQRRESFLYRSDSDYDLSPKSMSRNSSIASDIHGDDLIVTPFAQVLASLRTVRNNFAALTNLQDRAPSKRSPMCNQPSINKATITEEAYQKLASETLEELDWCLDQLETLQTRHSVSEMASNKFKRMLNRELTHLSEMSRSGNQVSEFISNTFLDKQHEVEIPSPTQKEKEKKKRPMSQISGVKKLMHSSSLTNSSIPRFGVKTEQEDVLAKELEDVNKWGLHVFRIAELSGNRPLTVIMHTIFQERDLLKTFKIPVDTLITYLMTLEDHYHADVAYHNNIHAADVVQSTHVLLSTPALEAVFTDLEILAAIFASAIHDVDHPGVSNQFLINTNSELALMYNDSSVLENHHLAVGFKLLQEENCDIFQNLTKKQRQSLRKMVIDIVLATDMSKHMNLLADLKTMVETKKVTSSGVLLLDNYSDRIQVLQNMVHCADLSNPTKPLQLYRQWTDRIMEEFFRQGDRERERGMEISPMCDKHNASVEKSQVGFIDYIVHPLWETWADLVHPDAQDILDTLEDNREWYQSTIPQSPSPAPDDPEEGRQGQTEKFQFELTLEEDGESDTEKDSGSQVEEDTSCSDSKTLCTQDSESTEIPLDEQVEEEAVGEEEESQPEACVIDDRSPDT
Counter-ions that a name gives are not always drawn.
REPORTED_ENDPOINT: IC50

Illustrative cases are given below, each with its answer.
COMPOUND: COC(=O)Cc1ccc(Nc2nc(Cl)nc(-c3ccc(Cl)s3)n2)cc1
MEASUREMENT: > 1000 nM

COMPOUND: OCCc1ccc(Nc2cc(-c3ccc(F)c(Cl)c3)nc3c2CCC3)cc1 [Example 151, hydrochloride]
MEASUREMENT: > 1000 nM

Let us move to another entry and its IC50.
INPUT: # return recorded IC50 for entry "OB1OCc2cc(Nc3nc(-c4ccc(Cl)s4)nc4c3CCC4)ccc21"
OUTPUT: < 1000 nM

----------
target: PDE4D7 (Homo sapiens (Human), UniProt Q08499); conditions: read-out: PDE4D7 IC50; PDE4D7 without asterisk
pIC50: −log10 of the molar value. Structures can show the parent of a compound that is named as a salt.
REPORTED_ENDPOINT: pIC50

COMPOUND: CC(C)c1nc(Nc2ccc(C(=O)O)cc2)nc(-c2ccc(Cl)s2)n1
pIC50: > 6.00

INPUT: # return recorded pIC50 for entry OCCc1ccc(Nc2cc(C3=CCCC3)nc3c2CCC3)cc1 [Example 248, hydrochloride]
OUTPUT: < 6.00

INPUT: # return recorded pIC50 for entry NC(=O)Cc1ccc(Nc2cc(C3CCCCC3)nc3c2CCC3)cc1 [Example 250, hydrochloride]
OUTPUT: < 6.00
